- measured.on: Glycogen synthase kinase-3 alpha (Homo sapiens)
- details: at 10 µM

- molecule: "CSc1nc(-c2ccc(F)cc2)c(-c2ccnc(NC(C)c3ccccc3)c2)[nH]1 (stereo not given)"
  readout.unit: "%"
  residual activity: 96
- molecule: "O=C(CCCc1ccc(-c2ccccc2F)cc1)Nc1ccc(O)cc1"
  readout.unit: "%"
  residual activity: 84
- molecule: "Oc1cccc(-c2nc(N3CCOCC3)c3oc4ncccc4c3n2)c1"
  readout.unit: "%"
  residual activity: 127
- molecule: "Nc1ncnc2c1c(-c1ccc(Oc3ccccc3)cc1)cn2C1CCCC1"
  readout.unit: "%"
  residual activity: 112
- molecule: "CC(C)[C@H](CO)Nc1nc(Nc2cc(N)cc(Cl)c2)c2ncn(C(C)C)c2n1"
  readout.unit: "%"
  residual activity: 28

* * *

- measured.on: Serine/threonine-protein kinase PAK 5 (Homo sapiens)
- details: at 1 µM
Consider the following compounds and their measured residual activity readings.

- structure.notation: "O=c1cc(N2CCOCC2)oc2c1ccc1ccccc12"
  residual activity [%]: 94
- structure.notation: "O=C(c1ccccc1)c1ccc(N2CCOCC2)cc1O"
  residual activity [%]: 92
- structure.notation: "NC(=O)c1cccc(-c2cc(Nc3ccc(OC(F)(F)F)cc3)ncn2)c1"
  residual activity [%]: 92
- structure.notation: "O=C1Nc2ccc(Cl)cc2/C1=C/c1cc(Cl)c(O)c(Cl)c1"
  residual activity [%]: 73
- structure.notation: "CCN(CC)CCNC(=O)c1c(C)[nH]c(/C=C2\\C(=O)Nc3ccc(Cl)cc32)c1C"
  residual activity [%]: 30
- structure.notation: "CCCCc1c(-c2ccc(O)cc2)[nH]c2nccnc12"
  residual activity [%]: 56
- structure.notation: "COc1cc2ncnc(Nc3cccc(Cl)c3)c2cc1OC"
  residual activity [%]: 109
- structure.notation: "CCCC(=O)Oc1ccc2[nH]c(C(=O)c3cc4ccccc4[nH]3)cc2c1"
  residual activity [%]: 100
- structure.notation: "CC(C)c1nn(-c2c(Cl)cccc2Cl)c2nc(Cc3ccc(OCCO)cc3)[nH]c(=O)c12"
  residual activity [%]: 73
- structure.notation: "COc1cc2nccc(Oc3ccc(NC(=S)NC(=O)c4ccccc4C)cc3)c2cc1OC"
  residual activity [%]: 83
- structure.notation: "Nc1ncnc2c1c(-c1ccc(Oc3ccccc3)cc1)cn2C1CCCC1"
  residual activity [%]: 76
- structure.notation: "NC(=O)Nc1sc(-c2ccc(F)cc2)cc1C(N)=O"
  residual activity [%]: 67
- structure.notation: "O=C1NC(=O)C(c2c[nH]c3ccccc23)=C1c1c[nH]c2ccccc12"
  residual activity [%]: 99
- structure.notation: "Nc1ncnc2[nH]nc(Nc3ccc(F)cc3)c12"
  residual activity [%]: 104
- structure.notation: "COc1ccc(Cl)cc1NC(=O)Nc1cc(C)nc2ccccc12"
  residual activity [%]: 80
- structure.notation: "O=C(CCCc1ccc(-c2ccccc2F)cc1)Nc1ccc(O)cc1"
  residual activity [%]: 104

* * *

- measured.on: Angiopoietin-1 receptor (Homo sapiens) (UniProt Q02763)
- Sequence (Q02763 whole entry): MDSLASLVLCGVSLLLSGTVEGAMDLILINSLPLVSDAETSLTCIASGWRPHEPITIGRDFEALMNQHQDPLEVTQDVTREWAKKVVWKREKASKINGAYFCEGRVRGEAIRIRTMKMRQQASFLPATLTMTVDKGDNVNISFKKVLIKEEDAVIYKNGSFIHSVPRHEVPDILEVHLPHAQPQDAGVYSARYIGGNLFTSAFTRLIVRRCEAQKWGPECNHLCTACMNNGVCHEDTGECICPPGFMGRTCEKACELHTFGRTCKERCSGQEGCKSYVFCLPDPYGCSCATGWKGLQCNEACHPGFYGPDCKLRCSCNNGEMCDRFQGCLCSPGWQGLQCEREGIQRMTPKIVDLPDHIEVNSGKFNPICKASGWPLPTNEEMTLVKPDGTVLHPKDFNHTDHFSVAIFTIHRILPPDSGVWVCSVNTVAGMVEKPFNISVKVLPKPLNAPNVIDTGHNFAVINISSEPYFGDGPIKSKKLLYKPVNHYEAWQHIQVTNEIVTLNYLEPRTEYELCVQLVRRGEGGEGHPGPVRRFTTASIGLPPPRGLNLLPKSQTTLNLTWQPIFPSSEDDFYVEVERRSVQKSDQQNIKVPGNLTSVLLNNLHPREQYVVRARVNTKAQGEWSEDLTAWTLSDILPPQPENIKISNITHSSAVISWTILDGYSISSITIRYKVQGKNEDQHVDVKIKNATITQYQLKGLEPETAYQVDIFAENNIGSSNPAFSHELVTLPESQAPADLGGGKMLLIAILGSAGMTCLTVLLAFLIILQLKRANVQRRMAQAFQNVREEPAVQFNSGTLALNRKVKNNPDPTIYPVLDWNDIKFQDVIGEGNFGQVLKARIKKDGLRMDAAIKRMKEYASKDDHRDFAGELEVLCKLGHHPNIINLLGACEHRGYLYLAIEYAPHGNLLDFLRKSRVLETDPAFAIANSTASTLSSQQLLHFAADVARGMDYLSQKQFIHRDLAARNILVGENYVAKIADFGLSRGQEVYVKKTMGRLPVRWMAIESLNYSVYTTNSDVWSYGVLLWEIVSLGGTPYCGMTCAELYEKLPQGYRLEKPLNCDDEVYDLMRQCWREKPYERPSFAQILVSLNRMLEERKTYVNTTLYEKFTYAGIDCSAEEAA
- details: at 1 µM
reported.endpoint: residual activity (%)

- structure.notation: "O=c1cc(N2CCOCC2)oc2c1ccc1ccccc12"
  assay.result: 81
- structure.notation: "O=C(Nc1nc2ccccc2n1CCN1CCOCC1)c1cccc([N+](=O)[O-])c1"
  assay.result: 80
- structure.notation: "CC(C)(C)c1nc2c3ccc(F)cc3c3c(=O)[nH]ccc3c2[nH]1"
  assay.result: 78

* * *

- measured.on: Homeodomain-interacting protein kinase 2 (Homo sapiens) (UniProt Q9H2X6)
- Sequence (Q9H2X6 whole entry, looked up): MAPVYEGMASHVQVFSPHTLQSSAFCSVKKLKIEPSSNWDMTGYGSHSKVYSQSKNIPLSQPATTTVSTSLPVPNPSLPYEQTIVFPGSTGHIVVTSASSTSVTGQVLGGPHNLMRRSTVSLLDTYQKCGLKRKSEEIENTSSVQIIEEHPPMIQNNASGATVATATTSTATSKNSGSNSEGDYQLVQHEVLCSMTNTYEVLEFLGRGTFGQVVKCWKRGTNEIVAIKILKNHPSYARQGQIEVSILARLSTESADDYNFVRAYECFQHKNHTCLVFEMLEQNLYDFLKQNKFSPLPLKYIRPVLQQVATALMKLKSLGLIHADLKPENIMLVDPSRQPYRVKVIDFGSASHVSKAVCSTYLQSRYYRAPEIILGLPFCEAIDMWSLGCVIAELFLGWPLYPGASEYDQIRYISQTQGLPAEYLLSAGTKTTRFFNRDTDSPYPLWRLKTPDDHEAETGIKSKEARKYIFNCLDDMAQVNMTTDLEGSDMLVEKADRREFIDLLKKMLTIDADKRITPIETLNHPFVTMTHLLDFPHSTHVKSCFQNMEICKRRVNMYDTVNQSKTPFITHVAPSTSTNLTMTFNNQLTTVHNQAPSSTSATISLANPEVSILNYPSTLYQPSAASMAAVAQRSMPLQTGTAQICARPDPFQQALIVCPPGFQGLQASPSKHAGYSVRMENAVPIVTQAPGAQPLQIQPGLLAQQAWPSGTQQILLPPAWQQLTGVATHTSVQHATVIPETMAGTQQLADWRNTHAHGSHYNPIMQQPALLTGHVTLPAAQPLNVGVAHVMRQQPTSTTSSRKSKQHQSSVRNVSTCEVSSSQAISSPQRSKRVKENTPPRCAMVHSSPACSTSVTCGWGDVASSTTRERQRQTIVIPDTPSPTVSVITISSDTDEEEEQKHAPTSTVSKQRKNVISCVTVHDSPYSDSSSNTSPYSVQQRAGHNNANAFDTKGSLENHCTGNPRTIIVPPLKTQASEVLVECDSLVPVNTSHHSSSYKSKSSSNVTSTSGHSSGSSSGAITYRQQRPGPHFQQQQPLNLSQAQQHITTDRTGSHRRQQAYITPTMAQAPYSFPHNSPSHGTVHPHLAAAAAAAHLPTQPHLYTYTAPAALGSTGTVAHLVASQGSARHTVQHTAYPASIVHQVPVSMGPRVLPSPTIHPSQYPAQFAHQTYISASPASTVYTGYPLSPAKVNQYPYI
- details: at 10 µM

- structure.notation: "c1ccc(-c2cnc(Nc3ccc(OCCN4CCCC4)cc3)s2)cc1"
  measured.on: "Homeodomain-interacting protein kinase 2 (Homo sapiens) (UniProt Q9H2X6)"
  residual activity / %: 19
- structure.notation: "O=c1c(-c2ccc(F)cc2)c(-c2ccncc2)[nH]n1-c1ccc(Cl)cc1"
  measured.on: "Homeodomain-interacting protein kinase 2 (Homo sapiens) (UniProt Q9H2X6)"
  residual activity / %: 99
- structure.notation: "Oc1cccc(-c2nc(N3CCOCC3)c3oc4ncccc4c3n2)c1"
  measured.on: "Homeodomain-interacting protein kinase 2 (Homo sapiens) (UniProt Q9H2X6)"
  residual activity / %: 89
- structure.notation: "O=C(c1cc2cc(O)ccc2[nH]1)c1cc2cc(O)ccc2[nH]1"
  measured.on: "Homeodomain-interacting protein kinase 2 (Homo sapiens) (UniProt Q9H2X6)"
  residual activity / %: 28
- structure.notation: "O=C(O)/C=C/c1cc(Br)c(Br)c(Br)c1Br"
  measured.on: "Homeodomain-interacting protein kinase 2 (Homo sapiens) (UniProt Q9H2X6)"
  residual activity / %: 27
- structure.notation: "CC(C)c1nn(-c2c(Cl)cccc2Cl)c2nc(Cc3ccc(OCCO)cc3)[nH]c(=O)c12"
  measured.on: "Homeodomain-interacting protein kinase 2 (Homo sapiens) (UniProt Q9H2X6)"
  residual activity / %: 89
- structure.notation: "COc1ccc2c(c1)c(C1=C(c3c[nH]c4ccccc34)C(=O)NC1=O)cn2CCCN(C)C"
  measured.on: "Homeodomain-interacting protein kinase 2 (Homo sapiens) (UniProt Q9H2X6)"
  residual activity / %: 13

* * *

- measured.on: Myosin light chain kinase, smooth muscle (Homo sapiens) (UniProt Q15746)
- Sequence (Q15746 whole entry): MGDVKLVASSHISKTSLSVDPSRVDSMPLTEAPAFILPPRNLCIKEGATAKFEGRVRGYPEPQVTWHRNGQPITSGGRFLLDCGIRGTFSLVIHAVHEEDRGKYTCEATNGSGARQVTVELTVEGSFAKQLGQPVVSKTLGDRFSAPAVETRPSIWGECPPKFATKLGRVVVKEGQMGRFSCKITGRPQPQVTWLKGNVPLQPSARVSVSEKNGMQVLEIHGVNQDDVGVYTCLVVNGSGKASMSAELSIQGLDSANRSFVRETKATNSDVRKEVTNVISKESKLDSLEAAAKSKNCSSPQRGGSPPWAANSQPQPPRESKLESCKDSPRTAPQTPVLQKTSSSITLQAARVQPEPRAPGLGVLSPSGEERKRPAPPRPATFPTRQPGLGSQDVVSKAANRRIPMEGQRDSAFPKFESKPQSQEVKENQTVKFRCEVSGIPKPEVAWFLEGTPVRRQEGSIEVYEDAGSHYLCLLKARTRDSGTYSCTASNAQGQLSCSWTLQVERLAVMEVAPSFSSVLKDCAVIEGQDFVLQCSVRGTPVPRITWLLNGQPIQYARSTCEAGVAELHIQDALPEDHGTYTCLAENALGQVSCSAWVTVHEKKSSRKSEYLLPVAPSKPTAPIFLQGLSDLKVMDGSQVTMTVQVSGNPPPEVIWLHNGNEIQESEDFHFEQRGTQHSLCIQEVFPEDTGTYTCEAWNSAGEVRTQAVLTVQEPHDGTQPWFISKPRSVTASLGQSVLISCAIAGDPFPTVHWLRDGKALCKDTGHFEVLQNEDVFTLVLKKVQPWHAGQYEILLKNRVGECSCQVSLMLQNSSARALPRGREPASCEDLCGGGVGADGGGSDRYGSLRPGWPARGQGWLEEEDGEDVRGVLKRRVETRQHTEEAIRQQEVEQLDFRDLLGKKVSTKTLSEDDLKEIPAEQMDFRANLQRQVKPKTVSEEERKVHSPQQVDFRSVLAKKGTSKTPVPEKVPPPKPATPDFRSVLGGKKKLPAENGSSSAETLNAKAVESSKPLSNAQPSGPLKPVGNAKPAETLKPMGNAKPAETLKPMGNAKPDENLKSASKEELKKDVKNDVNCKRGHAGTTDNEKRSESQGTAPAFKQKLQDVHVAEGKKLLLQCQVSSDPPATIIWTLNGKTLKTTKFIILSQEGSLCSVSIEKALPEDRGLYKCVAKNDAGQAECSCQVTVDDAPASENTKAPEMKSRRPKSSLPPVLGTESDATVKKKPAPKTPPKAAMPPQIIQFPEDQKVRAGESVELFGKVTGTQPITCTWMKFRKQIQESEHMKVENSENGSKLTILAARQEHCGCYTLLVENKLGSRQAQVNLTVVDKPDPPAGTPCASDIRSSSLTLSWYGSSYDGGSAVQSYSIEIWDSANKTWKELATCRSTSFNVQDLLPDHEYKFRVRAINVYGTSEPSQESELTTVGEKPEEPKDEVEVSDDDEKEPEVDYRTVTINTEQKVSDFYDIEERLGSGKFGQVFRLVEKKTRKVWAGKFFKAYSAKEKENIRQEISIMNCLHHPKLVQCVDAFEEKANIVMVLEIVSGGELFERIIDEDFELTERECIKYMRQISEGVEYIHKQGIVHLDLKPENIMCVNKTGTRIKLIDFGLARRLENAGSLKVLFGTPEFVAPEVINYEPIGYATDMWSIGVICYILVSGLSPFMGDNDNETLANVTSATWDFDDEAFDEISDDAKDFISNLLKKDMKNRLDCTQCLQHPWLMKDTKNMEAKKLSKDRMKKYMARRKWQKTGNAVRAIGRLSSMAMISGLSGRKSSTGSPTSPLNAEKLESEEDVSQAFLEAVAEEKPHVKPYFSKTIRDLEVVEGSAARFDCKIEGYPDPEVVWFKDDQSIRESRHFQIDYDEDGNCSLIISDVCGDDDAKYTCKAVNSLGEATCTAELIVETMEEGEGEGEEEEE
- details: at 1 µM
// values below are reported residual activity
reported.endpoint: residual activity

- structure.notation: "O=C(CCCc1ccc(-c2ccccc2F)cc1)Nc1ccc(O)cc1"
  measured.on: "Myosin light chain kinase, smooth muscle (Homo sapiens) (UniProt Q15746)"
  reported.endpoint: "residual activity"
  assay.result: "102%"
- structure.notation: "CN([C@@H](Cc1ccc(OS(=O)(=O)c2cccc3cnccc23)cc1)C(=O)N1CCN(c2ccccc2)CC1)S(=O)(=O)c1cccc2cnccc12"
  measured.on: "Myosin light chain kinase, smooth muscle (Homo sapiens) (UniProt Q15746)"
  reported.endpoint: "residual activity"
  assay.result: "100%"
- structure.notation: "COc1cc2nccc(Oc3ccc(NC(=O)Nc4cc(C)on4)c(Cl)c3)c2cc1OC"
  measured.on: "Myosin light chain kinase, smooth muscle (Homo sapiens) (UniProt Q15746)"
  reported.endpoint: "residual activity"
  assay.result: "66%"
- structure.notation: "Nc1n[nH]c2nc3ccccc3nc12"
  measured.on: "Myosin light chain kinase, smooth muscle (Homo sapiens) (UniProt Q15746)"
  reported.endpoint: "residual activity"
  assay.result: "95%"
- structure.notation: "COc1ccc(Cl)cc1NC(=O)Nc1cc(C)nc2ccccc12"
  measured.on: "Myosin light chain kinase, smooth muscle (Homo sapiens) (UniProt Q15746)"
  reported.endpoint: "residual activity"
  assay.result: "83%"
- structure.notation: "O=C1NC(=O)C(c2cn(CCCn3ccnc3)c3ccccc23)=C1Nc1ccccc1"
  measured.on: "Myosin light chain kinase, smooth muscle (Homo sapiens) (UniProt Q15746)"
  reported.endpoint: "residual activity"
  assay.result: "53%"
- structure.notation: "O=C1Cc2c([nH]c3ccc(Br)cc23)-c2ccccc2N1"
  measured.on: "Myosin light chain kinase, smooth muscle (Homo sapiens) (UniProt Q15746)"
  reported.endpoint: "residual activity"
  assay.result: "89%"
- structure.notation: "O=c1cc(N2CCOCC2)oc2c1ccc1ccccc12"
  measured.on: "Myosin light chain kinase, smooth muscle (Homo sapiens) (UniProt Q15746)"
  reported.endpoint: "residual activity"
  assay.result: "92%"
- structure.notation: "O=C(c1ccccc1)c1ccc(N2CCOCC2)cc1O"
  measured.on: "Myosin light chain kinase, smooth muscle (Homo sapiens) (UniProt Q15746)"
  reported.endpoint: "residual activity"
  assay.result: "88%"
- structure.notation: "CCCCc1c(-c2ccc(O)cc2)[nH]c2nccnc12"
  measured.on: "Myosin light chain kinase, smooth muscle (Homo sapiens) (UniProt Q15746)"
  reported.endpoint: "residual activity"
  assay.result: "100%"
- structure.notation: "O=C1Nc2ccc(Cl)cc2/C1=C/c1cc(Cl)c(O)c(Cl)c1"
  measured.on: "Myosin light chain kinase, smooth muscle (Homo sapiens) (UniProt Q15746)"
  reported.endpoint: "residual activity"
  assay.result: "39%"
- structure.notation: "CC(C)c1nn(-c2c(Cl)cccc2Cl)c2nc(Cc3ccc(OCCO)cc3)[nH]c(=O)c12"
  measured.on: "Myosin light chain kinase, smooth muscle (Homo sapiens) (UniProt Q15746)"
  reported.endpoint: "residual activity"
  assay.result: "105%"
- structure.notation: "N#C/C(=C\\c1ccc(O)c(O)c1)C(=O)NCc1ccccc1"
  measured.on: "Myosin light chain kinase, smooth muscle (Homo sapiens) (UniProt Q15746)"
  reported.endpoint: "residual activity"
  assay.result: "101%"
- structure.notation: "O=C1NC(=O)c2c1c1c3ccccc3[nH]c1n1cncc21"
  measured.on: "Myosin light chain kinase, smooth muscle (Homo sapiens) (UniProt Q15746)"
  reported.endpoint: "residual activity"
  assay.result: "11%"
- structure.notation: "Nc1ncnc2c1cnn2-c1ccccc1"
  measured.on: "Myosin light chain kinase, smooth muscle (Homo sapiens) (UniProt Q15746)"
  reported.endpoint: "residual activity"
  assay.result: "86%"
- structure.notation: "c1ccc(-c2cnc(Nc3ccc(OCCN4CCCC4)cc3)s2)cc1"
  measured.on: "Myosin light chain kinase, smooth muscle (Homo sapiens) (UniProt Q15746)"
  reported.endpoint: "residual activity"
  assay.result: "76%"

Data origin, for the record: ChEMBL document CHEMBL2218924
